# inhibition annotations
tested on: Bacteria; assay: Inhibition of bacterial beta-lactamase KPC-2 at 200 uM using CENTA substrate by colorimetric assay relative to control
ASSAY READOUT: inhibition (%)

1. O=C(NC(=S)NNC(=O)c1cccs1)c1ccc(Br)o1: 66
2. Sc1nnc(-c2ccco2)n1C1CC1: 46
3. S=C(N/N=C/c1ccccc1)N1CCOCC1: 41

----------
# inhibition annotations
system: Bacteria; assay: Inhibition of bacterial beta-lactamase CTX-M-15 at 200 uM CENTA substrate by colorimetric assay relative to control
ASSAY READOUT: inhibition (%)

1) O=C(NC(=S)NNC(=O)c1cccs1)c1ccc(Br)o1: 55
2) Sc1nnc(-c2cccnc2)n1CC1CCCO1 (stereo not given): 33
3) Sc1nnc(-c2ccco2)n1C1CC1: 49
4) S=C(N/N=C/c1ccccc1)N1CCOCC1: 32

----------
test: Inhibition of recombinant bacterial beta-lactamase […] (28 to 270 residues) assessed as inhibition constant using imipenem as substrate by spectrophotometric assay; set-up: species or system Bacteria
ASSAY READOUT: Ki (µM)

1. S=C(N/N=C/c1ccccc1)N1CCOCC1: 32

----------
test: Inhibition of bacterial beta-lactamase TEM-10 using nitrocefin as substrate incubated for 10 mins and measured every 10 seconds for 10 mins; parameters: species or system Bacteria
ASSAY READOUT: IC50 (nM)

1) O=C(O)c1c(F)ccc2c1OB(O)[C@@H]1C[C@H]21: 2.2

----------
experiment: Inhibition of bacterial beta-lactamase IMP-1 using imipenem as substrate incubated for 10 mins followed by substrate addition measured every 30 seconds for 1 hr; set-up: species or system Bacteria
pIC50: −log10 of the molar value.
ASSAY READOUT: pIC50

1. O=C(O)c1c(F)ccc2c1OB(O)[C@@H]1C[C@H]21: 6.21

----------
assay: Inhibition of bacterial beta-lactamase OXA-48 using nitrocefin as substrate incubated for 10 mins and measured every 10 seconds for 10 mins; parameters: species or system Bacteria
pIC50: −log10 of the molar value.
ASSAY READOUT: pIC50

1) O=C(O)c1c(F)ccc2c1OB(O)[C@@H]1C[C@H]21: 8.96

----------
test system: Bacteria; assay: Inhibition of bacterial beta-lactamase AmpC at 200 uM using CENTA substrate by colorimetric assay relative to control
# inhibition annotations
ASSAY READOUT: inhibition

1. Sc1nnc(-c2cccnc2)n1CC1CCCO1 (stereo not given): < 20%
2. O=C(NC(=S)NNC(=O)c1cccs1)c1ccc(Br)o1: 32%
3. Sc1nnc(-c2ccco2)n1C1CC1: < 20%
4. S=C(N/N=C/c1ccccc1)N1CCOCC1: 50%
5. CCn1c(S)nnc1-c1nn(C)c(C)c1Cl: 37%

----------
system: Bacteria; test: Inhibition of recombinant bacterial beta-lactamase […] (28 to 270 residues) at 200 uM using CENTA substrate by colorimetric assay relative to control
ASSAY READOUT: inhibition (%)

1. Sc1nnc(-c2ccco2)n1C1CC1: 62
2. Sc1nnc(-c2cccnc2)n1CC1CCCO1 (stereo not given): 54
3. S=C(N/N=C/c1ccccc1)N1CCOCC1: 71
4. O=C(NC(=S)NNC(=O)c1cccs1)c1ccc(Br)o1: 79
5. CCn1c(S)nnc1-c1nn(C)c(C)c1Cl: 70

----------
assay: Inhibition of bacterial beta-lactamase SHV-12 using nitrocefin as substrate incubated for 10 mins and measured every 10 seconds for 10 mins; set-up: species or system Bacteria
ASSAY READOUT: IC50

1. O=C(O)c1c(F)ccc2c1OB(O)[C@@H]1C[C@H]21 [XERUBORBACTAM]: 1.9 nM
